assay_name: Inhibition of Aspergillus niger amyloglucosidase assessed as reduction of p-nitrophenol release using p-nitrophenyl-glycoside as substrate by spectrophotometric analysis
reported_metric: pIC50
Reminder that pIC50 means the negative base-10 logarithm of the concentration expressed in mol/L.

CC(C)(C)c1ccc(CCCCCC[C@@H](O)[C@H]2N[C@H](CO)[C@@H](O)[C@@H]2O)cc1.Cl
4.80
Cl.OC[C@H]1N[C@H](CCCCCCCc2ccc(Cl)cc2)[C@@H](O)[C@@H]1O
4.37
Cl.OC[C@H]1N[C@H]([C@H](O)CCCCCCc2ccc(F)c(F)c2)[C@@H](O)[C@@H]1O
4.96
Cl.OC[C@H]1N[C@H](CCCCCCCc2ccc(F)cc2)[C@@H](O)[C@@H]1O
4.50
OC[C@H]1N[C@H](CCCCCCCc2ccccc2)[C@@H](O)[C@@H]1O
4.44

Reported pIC50 ( CC(C)(C)c1ccc(CCCCCCC[C@H]2N[C@H](CO)[C@@H](O)[C@@H]2O)cc1.Cl ) = 4.74

Briefly, pIC50 measured for Cl.OC[C@H]1N[C@H](CCCCCCCc2cccc(F)c2)[C@@H](O)[C@@H]1O : 4.39

get_value(item= O=C1CCCC=C1CCCCCCC[C@H]1N[C@H](CO)[C@@H](O)[C@@H]1O , readout=pIC50) returns 4.52

Per the record, OC[C@H]1N[C@H](CCCCCCCc2ccc(F)c(F)c2F)[C@@H](O)[C@@H]1O has pIC50 of 4.82
